- Assay System: EcCc Hfq (Escherichia coli / Caulobacter …, UniProt P0A6X3 1-67+B8GW92:71-82, internal_change)
- Method: EMSA; Hill n 30.2; EMSA: 34 mM Tris-HCl pH 7.5, 50 mM NaCl, 50 mM KCl, 50 mM NH4Cl, 11.4 mM EDTA, 12% glycerol, 30 C, 30 min, ~1 nM 32P-RNA, Kd in Hfq6; anisotropy: 10 mM Tris-HCl
- Assay Context: protein: recombinant; tags: untagged; chain copies: 6; label: 32P; stem-loops
pKd: −log10 of the molar value.
Experimental Endpoint: pKd

INSERT INTO assay_data (binder, reading) VALUES
  ('ChiX (structured_RNA) RNA: GGGACACCGUCGCUUAAAGUGACGGCAUAAUAAUAAAAAAAUGAAAUUCCUCUUUGACGGGCCAAUAGCGAUAUUGGCCAUUUUUUU', 7.45);

Data provenance: paper PMC6561178
